assay: in vitro; settings: monkey, microsomes, pH 7.4, T1/2
ATTRIBUTE MEASURED: half-life at 1 μM (min)
Use min as the unit, but write only the number.

Incoming: Field request: half-life at 1 μM | item: `CCN1Cc2c(ccnc2N[C@@H](C)c2ccc(Oc3ccc(C)cc3)cc2)C1=O`
Outgoing: 10.9

###

test: Metabolic stability in rat liver microsome; conditions: rat, microsomes, pH 7.4
ATTRIBUTE MEASURED: half-life at 1 μM (min)
Use min as the unit, but write only the number.

Incoming: Field request: half-life at 1 μM | item: Cc1ncc2n1-c1ccc(Cl)cc1C(c1ccccc1F)=NC2 [Positive control, Midazolam, reference compound]
Outgoing: 3.98

###

test: in vitro; conditions: human, microsomes, pH 7.4, CLint
ATTRIBUTE MEASURED: microsomal CLint at 1 μM (µL/min/mg)
Use µL/min/mg as the unit, but write only the number.

Incoming: Field request: microsomal CLint at 1 μM | item: CCN1Cc2c(ccnc2N[C@@H](C)c2ccc(Oc3ccc(C)cc3)cc2)C1=O [Compound 16]
Outgoing: 43.6

###

assay: in vitro; conditions: rat, microsomes, pH 7.4, T1/2
ATTRIBUTE MEASURED: half-life at 1 μM (min)
Use min as the unit, but write only the number.

Incoming: Field request: half-life at 1 μM | item: CCN1Cc2c(ccnc2N[C@@H](C)c2ccc(Oc3ccc(C)cc3)cc2)C1=O [Compound 16]
Outgoing: 20.8

###

experiment: In vivo pharmacokinetics in ICR mouse; conditions: male, plasma, po, p.o. dose of 10 mg · kg^−1
ATTRIBUTE MEASURED: Cmax
The reply must contain the numeric value and, after it, the unit.

Incoming: Field request: Cmax | item: `CCN1Cc2c(ccnc2N[C@@H](C)c2ccc(Oc3ccccc3)c(F)c2)C1=O`
Outgoing: 1180 ng/mL

###

molecular target: IDH1 R132C (Homo sapiens (Human), UniProt O75874, R132C); test: Improved cell-based assay: D-2-HG in HT1080 cells over-expressing D-2-HG dehydrogenase; conditions: 0.5 μM, 12 h
Sequence (O75874 2-414 R132C): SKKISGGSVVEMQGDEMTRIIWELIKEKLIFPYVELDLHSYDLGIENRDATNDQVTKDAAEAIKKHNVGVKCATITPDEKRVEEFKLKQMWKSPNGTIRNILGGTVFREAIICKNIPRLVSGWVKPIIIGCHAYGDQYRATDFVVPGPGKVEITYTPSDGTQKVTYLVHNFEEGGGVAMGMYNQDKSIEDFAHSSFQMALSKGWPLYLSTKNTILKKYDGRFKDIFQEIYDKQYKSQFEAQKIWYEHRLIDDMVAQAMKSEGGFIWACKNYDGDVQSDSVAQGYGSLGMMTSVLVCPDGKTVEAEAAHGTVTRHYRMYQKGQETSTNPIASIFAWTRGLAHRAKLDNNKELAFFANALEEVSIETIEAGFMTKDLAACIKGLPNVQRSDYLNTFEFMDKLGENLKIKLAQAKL
# reported Inhibition ratio of D-2-HG in HT1080 cell; entries follow
Use % as the unit, but write only the number.

{"columns": ["COMPOUND", "OBS VALUE"],
 "data": [
  ["CCN1Cc2c(ccnc2N[C@@H](C)c2ccc(Oc3ccccc3F)cc2)C1=O [Compound 22]", 36.3]
]}

Incoming: Field request: Inhibition ratio of D-2-HG in HT1080 cell | item: Cc1ccc(Oc2ccc([C@H](C)Nc3nccc4c3CN(C(C)C)C4=O)cc2)cc1 [Compound 31]
Outgoing: 36.9

Incoming: Field request: Inhibition ratio of D-2-HG in HT1080 cell | item: CCN1Cc2c(ccnc2N[C@@H](C)c2ccc(Oc3ccc(C)cc3)cc2)C1=O [Compound 16]
Outgoing: 51

Incoming: Field request: Inhibition ratio of D-2-HG in HT1080 cell | item: CCN1Cc2c(ccnc2N[C@@H](C)c2ccc(Oc3ccc(C)cc3)c(F)c2)C1=O [Compound 24]
Outgoing: 45.5

Incoming: Field request: Inhibition ratio of D-2-HG in HT1080 cell | item: CCN1Cc2c(ccnc2N[C@@H](C)c2ccc(Oc3cccc(F)c3)cc2)C1=O [Compound 21]
Outgoing: 20.2

Incoming: Field request: Inhibition ratio of D-2-HG in HT1080 cell | item: CCN1Cc2c(ccnc2N[C@@H](C)c2ccc(Oc3ccccc3)c(F)c2)C1=O [Compound 23]
Outgoing: 12.5
